- Test system: HeLa
- protocol-notes: Cytotoxicity against human HeLa cells assessed as reduction in cell viability measured after 24 hrs by methylene blue staining based assay
measured-property: Activity

The reported value for C=C1CC[C@@H]2[C@]3(C)COC(C)(C)O[C@@H]3CC[C@@]2(C)[C@@H]1C/C=C(/C=O)[C@@H](COC(C)=O)O[Si](C)(C)C(C)(C)C in terms of Activity is Non-Toxic

For this compound ( C=C1CC[C@@H]2[C@](C)(CO)[C@H](O)CC[C@@]2(C)[C@@H]1C/C=C1/C(O)OC[C@H]1O[Si](CC)(CC)CC (stereo partly drawn) ), measured Activity is Non-Toxic

response.value for C=C1CC[C@@H]2[C@]3(C)COC(C)(C)O[C@@H]3CC[C@@]2(C)[C@@H]1C/C=C(/CO)[C@@H](CO)O[Si](CC)(CC)CC (field: Activity) = Non-Toxic
